targetOrTestSystem: MRGPRX2 (Homo sapiens)
methodNotes: MRGPRX2 β-Arrestin recruitment assay (PathHunter)
Type: cell-based
Set-up: host or cells: CHO-K1 (PathHunter)
assaySetup: PathHunter CHO-K1 MRGPRX2 β-Arrestin cell line; agonist Cortistatin 14 0.25 μM
pIC50: −log10 of the molar value.
property: pIC50

As a guide, the following entries are already answered.
O=C(N[C@H]1CC[C@H](O)CC1)N1CC(CNc2cccc3nc(C(F)(F)F)cn23)(c2ccc(F)cc2)C1 : 7.00 to 10.00
CCc1cc(NCC2(c3ccc(F)cc3)CN(C(=O)NCC(F)(F)F)C2)n2nc(C(F)(F)F)cc2n1 : 7.00 to 10.00

Q) For the compound shown here, "[2H]C([2H])([2H])C([2H])([2H])c1cc(NCC2(c3ccc(F)cc3)CN(C(=O)N[C@H]3CC[C@H](O)CC3)C2)n2nc(C(F)(F)F)cc2n1" , give the reported pIC50.
A) 7.00 to 10.00

Q) Another compound to look at: "Cc1ccc(C2(CNc3cc(C(F)(F)F)nc4cc(C(F)(F)F)nn34)CN(S(N)(=O)=O)C2)cn1"
A) 6.00 to 7.00

Q) Another compound to look at: NC(=O)C1(N)CC(CNc2cc(C(F)(F)F)nc3cc(C(F)(F)F)nn23)(c2ccc(F)cc2)C1 (centres unmarked)
A) 7.00 to 10.00

Q) Another compound to look at: "CO[C@H]1C[C@](CNc2cc(C(F)(F)F)nc3cc(C(F)(F)F)nn23)(c2ccccc2)C1"
A) 7.00 to 10.00

Q) Another compound to look at: "NC(=O)N1CC(CNc2cc(C(F)(F)F)nc3cc(C(F)(F)F)nn23)(c2ccc(F)cc2)C1"
A) 7.00 to 10.00

Q) Another compound to look at: "Nc1nc(N2CCC(CNc3cc(C(F)F)nc4cc(C(F)(F)F)nn34)(c3ccccc3)CC2)n[nH]1"
A) 7.00 to 10.00

----------
targetOrTestSystem: MRGPRX2 (Homo sapiens, UniProt Q96LB1)
Sequence (Q96LB1 whole entry): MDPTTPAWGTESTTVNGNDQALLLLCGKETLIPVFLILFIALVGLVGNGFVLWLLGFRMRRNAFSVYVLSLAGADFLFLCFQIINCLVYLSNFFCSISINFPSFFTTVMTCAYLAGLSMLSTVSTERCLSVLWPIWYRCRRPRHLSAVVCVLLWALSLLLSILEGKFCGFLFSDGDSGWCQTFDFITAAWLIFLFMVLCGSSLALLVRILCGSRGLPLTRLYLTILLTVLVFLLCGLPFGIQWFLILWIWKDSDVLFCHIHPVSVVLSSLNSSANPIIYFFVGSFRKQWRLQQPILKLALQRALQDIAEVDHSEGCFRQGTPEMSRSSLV
methodNotes: MRGPRX2 β-Arrestin recruitment assay (PathHunter)
Format: cell-based
Parameters: host or cells: CHO-K1 (PathHunter)
assaySetup: PathHunter CHO-K1 MRGPRX2 β-Arrestin cell line; agonist Cortistatin 14 0.25 μM
pIC50: −log10 of the molar value.
Reported pIC50 values for the following compounds.

[2H]C([2H])([2H])c1cc(NCC2(c3ccc(F)cc3)CN(C(=O)NCC(F)(F)F)C2)n2nc(C(F)(F)F)cc2n1 : 7.00 to 10.00
NS(=O)(=O)N1CC(CNc2cc(C(F)(F)F)nc3cc(C4CC4)nn23)(n2cccn2)C1 : 6.00 to 7.00
OCC1CC1(CNc1cc(C(F)(F)F)nc2cc(Br)nn12)c1ccccc1 (single isomer, unassigned) : 6.00 to 7.00
O=c1cc(N2CC(CNc3cc(C(F)(F)F)nc4cc(C(F)(F)F)nn34)(c3ccc(F)cc3)C2)ccn1C1CC1 : 7.00 to 10.00
NS(=O)(=O)N1CC[C@](CNc2cc(C(F)(F)F)nc3cc(C(F)(F)F)nn23)(c2ccccc2)C1 (stereo in doubt) : 6.00 to 7.00

Next, consider the following compound.
Q) For the compound shown here, "NC(=O)c1cccc(N2CC(CNc3cc(C(F)(F)F)nc4cc(C(F)(F)F)nn34)(c3ccc(F)cc3)C2)n1" , give the reported pIC50.
A) 7.00 to 10.00
